Test system: Salmonella typhimurium
assay procedure: Antibacterial activity against Salmonella Typhimurium after 18 hrs by macro-dilution test
Assay type: functional, Salmonella enterica subsp. enterica serovar Typhimurium
assay setup: Salmonella enterica
measure: MIC (µg/mL)

A: Cc1cccc2cc(/C=N/NC(N)=S)c(Cl)nc12
B: CC(=O)N(C1=NN(C(C)=O)C(c2cc3cccc(C)c3nc2Cl)S1)c1ccccc1C (stereo not drawn)
Select one: A or B . Criterion: greater recorded MIC. Your answer should be the label attached to the chosen record.
A
(A: 256 µg/mL, B: 32 µg/mL)

P: S=C(N/N=C/c1cc2ccccc2nc1Cl)NC1CCCCC1
Q: Fc1ccc(F)c(NC(=S)N/N=C/c2cc3cccc(Cl)c3nc2Cl)c1
Lower value of MIC belongs to which: P or Q ? State the label of the item chosen.
Q
(Q: 64 µg/mL, P: 128 µg/mL)

P: NC(=S)N/N=C/c1cc2ccccc2nc1Cl
Q: CC(=O)NC1=NN(C(C)=O)C(c2cc3ccccc3nc2Cl)S1 (stereo not drawn)
Kindly compare P with Q and tell me which has the lower MIC figure. State your choice using its label.
Q
